# Test system: Plasmodium falciparum
# EXPERIMENT: GSK_TCMDC: Inhibition of Plasmodium falciparum Dd2 in whole red blood cells, using parasite LDH activity as an index of growth. Test compounds present at 2uM
# Format: functional
READOUT_TYPE: Inhibition (%)
Answers are plain numbers, in %.

Worked cases, Inhibition given:
Cc1cc(CN2CC[C@H](NC(=O)c3ccc(Cl)c(Cl)c3)C2)ccc1OCCN1CCCC1.O=C(O)C(F)(F)F ... 92
COc1ccc2c(c1CNCCCCCCNCc1c(OC)ccc3c1CCCC3)CCCC2 ... 7

Hey, can you go through the list below and give me Inhibition for every item?
1. CCOc1cc(Cc2cnc(N)nc2N)cc(Br)c1OC
2. Cc1ccc(-c2cc3nc4c(c(NCCCn5ccnc5)n3n2)CCC4)cc1
3. Cc1cccc(CN2CCCN(Cc3cccc(C(=O)Nc4ccc(C(C)(C)C)cc4)c3)CC2)c1.O=C(O)C(F)(F)F

OUTPUT:
3
21
40

* * *

Field: Inhibition. Provide a value for each of the compounds that follow.
# System: Plasmodium falciparum
# EXPERIMENT: GSK_TCMDC: Inhibition of Plasmodium falciparum Dd2 in whole red blood cells, using parasite LDH activity as an index of growth. Test compounds present at 2uM
# Assay type: functional
Answers are plain numbers, in %.

Hey, can you go through the list below and give me Inhibition for every item?
1. Cc1nc(C)c(-c2ccc(Oc3cc(Cl)cc(Cl)c3)cc2)c(O)c1Br
2. Cn1cnc(CCNC(=O)c2cccc(-c3csc(-c4nc5ccccc5[nH]4)c3)c2)c1
3. O=C(O)C(F)(F)F.O=C1CCCN1CCCNCc1cccc(-c2ccc(-c3nc4cc(C(F)(F)F)ccc4[nH]3)cc2)c1
4. COc1ccc(OC)c(-c2cccc(-c3cccc(NC(=O)c4ccc([N+](=O)[O-])o4)c3)n2)c1
5. O=C(Nc1ccc(OC2CCN(Cc3ccccc3)C2)c(Cl)c1)c1ccc(F)cc1.O=C(O)C(F)(F)F (configuration not stated)
6. O=C(Nc1cccc(-c2ccc(-c3nc4cc(C(F)(F)F)ccc4[nH]3)s2)c1)c1cccnc1
7. Br.CC(C)(C)c1ccc(OCCCON2C(N)=NC(N)=NC2(C)C)cc1

OUTPUT:
1. 97
2. 26
3. 96
4. 97
5. 87
6. 99
7. 76

* * *

# Test system: Plasmodium falciparum
# EXPERIMENT: GSK_TCMDC: Inhibition of Plasmodium falciparum Dd2 in whole red blood cells, using parasite LDH activity as an index of growth. Test compounds present at 2uM
# Format: functional
READOUT_TYPE: Inhibition (%)
Give bare numbers, in %.

Worked cases, Inhibition given:
CC(=O)Nc1cccc(C(=O)Nc2cccc(-c3ccc(-c4nc5cc(F)ccc5[nH]4)cc3)c2)c1 ... 9
CN(C)CCN(C)Cc1cccc(-c2ccc3c(Nc4ccc(F)cc4Cl)ccnc3c2)c1 ... 100
NC1CCN(c2nc(NCCCc3ccc(O)cc3)nc(NCc3ccccc3-c3ccccc3)n2)CC1.O=C(O)C(F)(F)F ... 45
Cc1ccc(CNC(=O)[C@H](CCCN)Nc2nc(NCC3CCCCC3)ncc2C)cc1.O=C(O)C(F)(F)F ... 5

Hey, can you go through the list below and give me Inhibition for every item?
1. N#Cc1cccc(CN2CCCN(Cc3ccc(C(=O)Nc4ccc(Cl)cc4)cc3)CC2)c1.O=C(O)C(F)(F)F
2. COc1ccc2ncc(F)c(CCN3CCC(NCc4cc(C)c5c(c4)OCCO5)CC3)c2n1.Cl
3. COc1ccc(-n2cc(CNCCCn3ccnc3)c(-c3cccc(F)c3)n2)cc1
4. Cc1cc2nc(-c3ccc(SCC(=O)Nc4ccc5c(c4)OCCO5)nc3)[nH]c2cc1C

OUTPUT:
1. 21
2. 67
3. 17
4. 6

Hey, can you go through the list below and give me Inhibition for every item?
1. Cc1cc(N[C@@H](Cc2ccccc2)C(=O)NC2CCCC2)nc(NCCc2cccs2)n1.O=C(O)C(F)(F)F
2. Fc1cccc(Nc2nc(NCc3ccc(OCc4ccccc4)cc3)nc(Nc3cccc(F)c3)n2)c1
3. CN1CCc2cc(CN3CC4(C)CC3CC(C)(C)C4)c(O)cc2C(c2ccccc2)C1.Cl (stereo not drawn)
4. O=C(Nc1ccc(C(=O)Oc2ccc3ccccc3c2)cc1)N[C@@H](Cc1ccc(O)cc1)C(=O)NC1CCN(Cc2ccc(O)cc2)C1.O=C(O)C(F)(F)F (stereo partly drawn)
5. COc1cccc(C(=O)Nc2nc3c(s2)CCN(Cc2ccccc2N2CCNCC2)CC3)c1.O=C(O)C(F)(F)F
6. Oc1c(C(Nc2ccccn2)c2ccc(Cl)cc2Cl)ccc2cccnc12 (stereo not drawn)

OUTPUT:
[14, 14, 88, 1, 11, 60]

Hey, can you go through the list below and give me Inhibition for every item?
1. Cc1cc(-c2ccc3c(c2)CCN(CCC2CCC(NC(=O)/C=C/c4ccccc4F)CC2)CC3)on1.Cl (stereo not drawn)
2. CC(=O)Nc1cccc(C(=O)Nc2ccc(-c3cccc(-c4nc5cc(F)ccc5[nH]4)c3)cc2)c1

OUTPUT:
1: 13; 2: 8

Hey, can you go through the list below and give me Inhibition for every item?
1. Cc1cc(C)c(NC(=O)NC2CCN(CCCCCNC(=O)/C=C/c3ccc(Cl)c(Cl)c3)C2)c(C)c1 (stereo not drawn)
2. COc1cc2ncnc(Nc3ccc4nc(-c5ccccc5)[nH]c4c3)c2cc1OC.Cl

OUTPUT:
[48, 32]
